# Test system: mouse short heterodimer partner-1 mRNA
# TEST DETAILS: Inhibition of mouse short heterodimer partner-1 mRNA levels in primary hepatocytes, quantitative real-time PCR
# Format: cell-based
# Design: concentration or dose not given beside the values
# ASSAY CONDITIONS: averages from two experiments
Strand notation (5' to 3'): a small letter for the sugar, then the base; units joined by * are phosphorothioate-linked, units joined directly phosphodiester-linked; [ ] holds rarer units or linkages, { } end groups; capitals alone tell only the bases. e = 2'-O-(2-methoxyethyl) (MOE); [5mC] = 5-methylcytosine; d = 2'-deoxy (DNA)
Respond with Condition met for % INHIB (inhibition of mouse short heterodimer partner-1 mRNA levels) values of 40% and above, Condition not met for values below.

{"columns": ["SUBSTANCE", "GROUP LABEL"],
 "data": [
  ["148286 (antisense eA*eG*eT*e[5mC]*eA*dT*d[5mC]*dA*dA*dG*dG*dG*d[5mC]*dT*dT*eG*e[5mC]*eT*eG*eG) [compound 148286]", "Condition met"],
  ["148277 (antisense eT*eT*e[5mC]*eA*eG*dG*dT*dA*d[5mC]*dG*d[5mC]*dA*dT*dA*d[5mC]*eT*e[5mC]*e[5mC]*eT*eT) [compound 148277]", "Condition met"],
  ["148266 (antisense eA*eG*eG*e[5mC]*eA*dG*dT*dG*dG*d[5mC]*dT*dG*dT*dG*dA*eG*eA*eT*eG*e[5mC]) [compound 148266]", "Condition met"],
  ["148278 (antisense e[5mC]*eA*e[5mC]*eA*eG*dT*dG*d[5mC]*d[5mC]*d[5mC]*dA*dG*dT*dG*dA*eG*e[5mC]*e[5mC]*eT*e[5mC]) [compound 148278]", "Condition not met"],
  ["148280 (antisense eG*eT*eG*e[5mC]*e[5mC]*dT*dG*dG*dA*dA*dT*dG*dT*dT*d[5mC]*eT*eT*eG*eA*eG) [compound 148280]", "Condition not met"],
  ["148272 (antisense e[5mC]*eG*eG*eA*eG*d[5mC]*d[5mC]*dT*d[5mC]*dA*dG*d[5mC]*d[5mC]*dA*d[5mC]*e[5mC]*eT*e[5mC]*eG*eA) [compound 148272]", "Condition met"],
  ["148268 (antisense eT*eG*e[5mC]*eA*eG*dG*dT*dG*d[5mC]*dG*dG*dT*dG*d[5mC]*dG*eG*eA*eG*e[5mC]*eA) [compound 148268]", "Condition not met"],
  ["148285 (antisense eA*e[5mC]*eA*eG*eT*dT*dA*dG*dT*dA*dG*dT*dG*dT*dA*e[5mC]*eA*e[5mC]*eT*eG) [compound 148285]", "Condition met"],
  ["148279 (antisense eG*eG*eT*eA*eG*dA*dG*dG*d[5mC]*d[5mC]*dA*dT*dG*dA*dG*eG*eA*eG*eG*eA) [compound 148279]", "Condition met"],
  ["148270 (antisense e[5mC]*eA*e[5mC]*eT*e[5mC]*dT*dA*dG*d[5mC]*dA*dG*d[5mC]*d[5mC]*dG*d[5mC]*e[5mC]*eG*e[5mC]*eT*eG) [compound 148270]", "Condition met"]
]}
